# STUDY_SYSTEM: Human recombinant MAO-B (hMAO-B) (Homo sapiens, UniProt P27338)
# Sequence (P27338 1-520): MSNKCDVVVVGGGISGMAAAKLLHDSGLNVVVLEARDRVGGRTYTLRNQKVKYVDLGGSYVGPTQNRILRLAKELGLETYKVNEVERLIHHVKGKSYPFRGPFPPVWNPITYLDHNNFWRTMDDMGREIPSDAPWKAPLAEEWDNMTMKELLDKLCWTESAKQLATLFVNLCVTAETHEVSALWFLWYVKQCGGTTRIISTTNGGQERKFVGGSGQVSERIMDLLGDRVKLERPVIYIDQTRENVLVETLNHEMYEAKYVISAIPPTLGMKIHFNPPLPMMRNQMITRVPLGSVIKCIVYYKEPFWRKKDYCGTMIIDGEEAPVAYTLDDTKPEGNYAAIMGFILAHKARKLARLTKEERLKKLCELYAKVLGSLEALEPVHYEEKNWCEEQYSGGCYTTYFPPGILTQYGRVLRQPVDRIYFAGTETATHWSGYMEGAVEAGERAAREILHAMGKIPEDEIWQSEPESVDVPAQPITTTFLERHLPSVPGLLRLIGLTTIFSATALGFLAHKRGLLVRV
# ASSAY_DETAILS: MAO-B enzyme assay (Amplex Red, resorufin fluorescence)
# CONDITIONS: five doses 10-0.001 µM, triplicate
Threshold 1 µM: IC50 strictly smaller gives Met, otherwise Not met.

Observe how each entry below is paired with its result.
>>> qualitative_label("O=C(Nc1ccc2[nH]ccc2c1)c1cccc(Br)c1 [3r, 3-Bromo-N-(1H-indol-5-yl)benzamide]")
"Met"
>>> qualitative_label("O=C(Nc1ccc2[nH]ccc2c1)c1ccc(C(F)(F)F)cc1")
"Met"
>>> qualitative_label("O=C(Nc1ccc2[nH]ccc2c1)c1cc(Cl)cc(Cl)c1 [3w, 3,5-Dichloro-N-(1H-indol-5-yl)benzamide]")
"Not met"

For this molecule, is IC50 lower than 1 µM? `O=C(Nc1ccc2[nH]ccc2c1)c1cccc(C(F)(F)F)c1`
Not met

Just wondering, is IC50 of O=C(Nc1ccc2[nH]ccc2c1)c1cccc(Cl)c1 [3n, 3-Chloro-N-(1H-indol-5-yl)benzamide] below 1 µM?
Not met
